Biological target: T1, Rexo2 H194A (Homo sapiens, UniProt Q9Y3B8 33-223, H194A)
T1 sequence: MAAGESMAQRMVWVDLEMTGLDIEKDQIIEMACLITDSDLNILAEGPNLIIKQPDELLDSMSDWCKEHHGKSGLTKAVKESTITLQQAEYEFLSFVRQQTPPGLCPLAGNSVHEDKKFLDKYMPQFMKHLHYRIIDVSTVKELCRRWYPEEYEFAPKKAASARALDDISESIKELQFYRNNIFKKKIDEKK
Test: fluorescence polarization; 50 mM EDTA; Hill coefficient 3.5; Results sentence calls it 12-nt, legend and Methods 11-nt; FP: 10 nM Cy3-oligonucleotide, 50 mM Tris-HCl pH 7.5, 50 mM NaCl, 50 mM EDTA, 15 min at 25 C; crystals: 0.2 M ammonium citrate dibasic, 20% PEG 3350, pH 5.1, room temperature
Conditions: protein: recombinant; tags: N-terminal 6xHis removed by thrombin; chain copies: 2; label: 5'-Cy3; single strand
pKd: −log10 of the molar value.
test.readout: pKd

1. AGCGCAGUACC (ssRNA) [11-nt RNA]    7.35
